All values here come from patent US20210253557A1.

In this section we review reported pIC50 values for a set of compounds.
Target: human V1a receptor (Homo sapiens, UniProt P37288)
Sequence (P37288 whole entry): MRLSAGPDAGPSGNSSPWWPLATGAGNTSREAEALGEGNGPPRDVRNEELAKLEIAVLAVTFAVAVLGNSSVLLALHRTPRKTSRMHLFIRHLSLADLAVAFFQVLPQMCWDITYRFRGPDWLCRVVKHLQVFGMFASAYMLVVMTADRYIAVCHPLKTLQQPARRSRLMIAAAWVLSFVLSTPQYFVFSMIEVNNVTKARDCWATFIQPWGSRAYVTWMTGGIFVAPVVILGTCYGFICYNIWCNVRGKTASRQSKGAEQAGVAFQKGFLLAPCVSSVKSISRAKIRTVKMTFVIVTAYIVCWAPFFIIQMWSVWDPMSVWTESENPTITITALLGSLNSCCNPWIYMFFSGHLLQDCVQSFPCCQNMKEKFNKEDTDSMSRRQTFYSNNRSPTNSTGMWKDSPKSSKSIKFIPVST
Test: Cellular in vitro assay for determining vasopressin receptor activity (V1a, aequorin luminescence)
Details: CHO cell line transfected with the human V1a receptor; [Arg8]-vasopressin at EC50 concentration; read-out: IC50 hV1a
Protocol: B-1. Cellular In Vitro Assay for Determining Vasopressin Receptor Activity The identification of agonists and antagonists of the V1a and V2 vasopressin receptors from humans, rats and dogs as well as the quantification of the activity of the compounds of the invention is carried out using recombinant cell lines. […] The bioluminescence of the cell lines is detected using a suitable luminometer [Milligan G, Marshall F, Rees S, Trends in Pharmacological Sciences 17, 235-237 (1996)]. […]
pIC50: −log10 of the molar value.
measuredAttribute: pIC50

compound	measurementTarget	measValue
CC(=O)NC(C)c1nc(Cn2nc(-c3ccc(Cl)cc3)n(C[C@H](O)C(F)(F)F)c2=O)nn1-c1ncccc1Cl (single isomer, unassigned) [Example 108]	human V1a receptor (Homo sapiens, UniProt P37288)	8.22
C[C@@H](OC(N)=O)c1nc(Cn2nc(-c3ccc(Cl)cc3)n(C[C@H](O)C(F)(F)F)c2=O)nn1-c1c(Cl)cncc1Cl [Example 20]	human V1a receptor (Homo sapiens, UniProt P37288)	8.48
O=C1NC(c2nc(Cn3nc(-c4ccc(Cl)cc4)n(C[C@H](O)C(F)(F)F)c3=O)nn2-c2ncccc2Cl)CO1 (mixture of isomers) [Example 112]	human V1a receptor (Homo sapiens, UniProt P37288)	8.08
COc1ccccc1-n1nc(Cn2nc(-c3ccc(Cl)cc3)n(C[C@H](O)C(F)(F)F)c2=O)nc1C(C)OC(N)=O (single isomer, unassigned) [Example 41]	human V1a receptor (Homo sapiens, UniProt P37288)	8.70
CC(=O)NC(COC(C)(C)C)c1nc(Cn2nc(-c3ccc(Cl)cc3)n(C[C@H](O)C(F)(F)F)c2=O)nn1-c1ccccc1Cl (single isomer, unassigned) [Example 90]	human V1a receptor (Homo sapiens, UniProt P37288)	7.90
C[C@H](OC(N)=O)c1nc(Cn2nc(-c3ccc(Cl)cc3)n(C[C@H](O)C(F)(F)F)c2=O)nn1-c1c(Cl)cccc1Cl [Example 1]	human V1a receptor (Homo sapiens, UniProt P37288)	8.46
CC(NC(=O)C(F)(F)F)c1nc(Cn2nc(-c3ccc(Cl)cc3)n(C[C@H](O)C(F)(F)F)c2=O)nn1-c1ccccc1Cl (single isomer, unassigned) [Example 75]	human V1a receptor (Homo sapiens, UniProt P37288)	8.38
CC(=O)NC(COC(C)(C)C)c1nc(Cn2nc(-c3ccc(Cl)cc3)n(C[C@H](O)C(F)(F)F)c2=O)nn1-c1ccccc1Cl (mixture of isomers) [Example 88]	human V1a receptor (Homo sapiens, UniProt P37288)	8.82
C[C@@H](OC(N)=O)c1nc(Cn2nc(-c3ccc(Cl)cc3)n(C[C@H](O)C(F)(F)F)c2=O)nn1-c1ccc(Cl)cn1 [Example 17]	human V1a receptor (Homo sapiens, UniProt P37288)	6.25
COc1ccccc1-n1nc(Cn2nc(-c3ccc(Cl)cc3)n(C[C@H](O)C(F)(F)F)c2=O)nc1COC(N)=O [Example 27]	human V1a receptor (Homo sapiens, UniProt P37288)	8.75
O=C1CC[C@@H](c2nc(Cn3nc(-c4ccc(Cl)cc4)n(C[C@H](O)C(F)(F)F)c3=O)nn2-c2ccccc2Cl)N1 [Example 102]	human V1a receptor (Homo sapiens, UniProt P37288)	9.60
O=C(NC(CO)c1nc(Cn2nc(-c3ccc(Cl)cc3)n(C[C@H](O)C(F)(F)F)c2=O)nn1-c1ccccc1Cl)C(F)(F)F (mixture of isomers) [Example 95]	human V1a receptor (Homo sapiens, UniProt P37288)	8.68
CC(NS(C)(=O)=O)c1nc(Cn2nc(-c3ccc(Cl)cc3)n(C[C@H](O)C(F)(F)F)c2=O)nn1-c1ccccc1Cl (single isomer, unassigned) [Example 69]	human V1a receptor (Homo sapiens, UniProt P37288)	9.15
O=C1NC(c2nc(Cn3nc(-c4ccc(Cl)cc4)n(C[C@H](O)C(F)(F)F)c3=O)nn2-c2ccccc2Cl)CO1 (single isomer, unassigned) [Example 99]	human V1a receptor (Homo sapiens, UniProt P37288)	8.48
CC(NC(=O)C(F)(F)F)c1nc(Cn2nc(-c3ccc(Cl)cc3)n(C[C@H](O)C(F)(F)F)c2=O)nn1-c1ccccc1Cl (mixture of isomers) [Example 73]	human V1a receptor (Homo sapiens, UniProt P37288)	8.81
C[C@H](OC(N)=O)c1nc(Cn2nc(-c3ccc(Cl)cc3)n(C[C@H](O)C(F)(F)F)c2=O)nn1-c1ccccc1OC(F)(F)F [Example 7]	human V1a receptor (Homo sapiens, UniProt P37288)	8.44

###

In this section we review reported IC50 values for a set of compounds.
biological target: human V2 receptor (Homo sapiens); experiment: Cellular in vitro assay for determining vasopressin receptor activity (V2, CRE-luciferase); conditions: CHO cell line transfected with the human V2 receptor; [Arg8]-vasopressin at EC50 concentration; read-out: IC50 hV2
Sequence (P30518 whole entry): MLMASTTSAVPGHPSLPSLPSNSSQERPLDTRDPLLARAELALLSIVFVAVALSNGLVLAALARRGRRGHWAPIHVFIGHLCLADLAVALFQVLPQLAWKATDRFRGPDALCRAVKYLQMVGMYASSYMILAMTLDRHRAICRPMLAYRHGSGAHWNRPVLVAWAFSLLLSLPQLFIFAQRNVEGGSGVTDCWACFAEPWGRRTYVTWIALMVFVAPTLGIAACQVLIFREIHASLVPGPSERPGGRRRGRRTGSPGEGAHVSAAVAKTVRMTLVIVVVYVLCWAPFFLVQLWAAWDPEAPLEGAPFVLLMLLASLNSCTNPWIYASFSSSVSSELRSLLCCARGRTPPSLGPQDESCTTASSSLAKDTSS
Structures can show the parent of a compound that is named as a salt.

compound	IC50 (µM)
CC(NC(=O)C(F)(F)F)c1nc(Cn2nc(-c3ccc(Cl)cc3)n(C[C@H](O)C(F)(F)F)c2=O)nn1-c1ccccc1Cl (single isomer, unassigned) [Example 75]	0.059
CN(C)C1(c2nc(Cn3nc(-c4ccc(Cl)cc4)n(C[C@H](O)C(F)(F)F)c3=O)nn2-c2ccccc2Cl)CC1	0.0145
NC(=O)OCc1nc(Cn2nc(-c3ccc(Cl)cc3)n(C[C@H](OC(N)=O)C(F)(F)F)c2=O)nn1-c1cccc(Cl)c1	0.00226
O=C1NC(c2nc(Cn3nc(-c4ccc(Cl)cc4)n(C[C@H](O)C(F)(F)F)c3=O)nn2-c2ccccc2Cl)CO1 (single isomer, unassigned) [Example 100]	0.0875
NC(=O)OCc1nc(Cn2nc(-c3ccc(Cl)cc3)n(C[C@H](O)C(F)(F)F)c2=O)nn1-c1cccc(F)c1	0.00482
O=C1CC[C@H](c2nc(Cn3nc(-c4ccc(Cl)cc4)n(C[C@H](O)C(F)(F)F)c3=O)nn2-c2ccccc2Cl)N1	0.0038
CS(=O)(=O)NC(CO)c1nc(Cn2nc(-c3ccc(Cl)cc3)n(C[C@H](O)C(F)(F)F)c2=O)nn1-c1ccccc1Cl (mixture of isomers) [Example 85]	0.00225
CC(=O)NC(CO)c1nc(Cn2nc(-c3ccc(Cl)cc3)n(C[C@H](O)C(F)(F)F)c2=O)nn1-c1ccccc1Cl (mixture of isomers) [Example 91]	0.0089
CC(N)c1nc(Cn2nc(-c3ccc(Cl)cc3)n(C[C@H](O)C(F)(F)F)c2=O)nn1-c1cccc(F)c1 (single isomer, unassigned) [Example 55]	0.026
C[C@@H](OC(N)=O)c1nc(Cn2nc(-c3ccc(Cl)cc3)n(C[C@H](O)C(F)(F)F)c2=O)nn1-c1ccccn1	0.225
CC(C)(C)OCC(NC(=O)C(F)(F)F)c1nc(Cn2nc(-c3ccc(Cl)cc3)n(C[C@H](O)C(F)(F)F)c2=O)nn1-c1ccccc1Cl (mixture of isomers)	0.0275
Cc1ccccc1-n1nc(Cn2nc(-c3ccc(Cl)cc3)n(C[C@H](O)C(F)(F)F)c2=O)nc1C(C)N (mixture of isomers) [Example 59, trifluoroacetate]	0.00274
C[C@H](OC(N)=O)c1nc(Cn2nc(-c3ccc(Cl)cc3)n(C[C@H](O)C(F)(F)F)c2=O)nn1-c1ccncc1Cl	0.03
CS(=O)(=O)NC(CO)c1nc(Cn2nc(-c3ccc(Cl)cc3)n(C[C@H](O)C(F)(F)F)c2=O)nn1-c1ccccc1Cl (single isomer, unassigned) [Example 86]	0.002

###

molecular target: human V1a receptor (Homo sapiens, UniProt P37288); construct: expressed in transfected cells; host or cells: CHO K1 (ATCC), also stably transfected with a modified aequorin; test: Cellular in vitro assay for determining vasopressin receptor activity (V1a, aequorin luminescence); assay type: cell-based; settings: selectivity ratio of IC50 hV2 to IC50 hV1a
Counter-ions that a name gives are not always drawn.
In this section we review reported ratio IC50 hV2/hV1a values for a set of molecules.

molecule	ratio IC50 hV2/hV1a
C[C@H](OC(N)=O)c1nc(Cn2nc(-c3ccc(Cl)cc3)n(C[C@H](O)C(F)(F)F)c2=O)nn1-c1ccccc1S(N)(=O)=O	4.3
C[C@@H](OC(N)=O)c1nc(Cn2nc(-c3ccc(Cl)cc3)n(C[C@H](O)C(F)(F)F)c2=O)nn1-c1c(Cl)cncc1Cl	15.8
O=C(NC(CO)c1nc(Cn2nc(-c3ccc(Cl)cc3)n(C[C@H](O)C(F)(F)F)c2=O)nn1-c1ccccc1Cl)C(F)(F)F (single isomer, unassigned) [Example 96]	6.0
C[C@H](OC(N)=O)c1nc(Cn2nc(-c3ccc(Cl)cc3)n(C[C@H](O)C(F)(F)F)c2=O)nn1-c1ccccc1OC(F)(F)F	7.4
COCCNC(=O)OCc1nc(Cn2nc(-c3ccc(Cl)cc3)n(C[C@H](O)C(F)(F)F)c2=O)nn1-c1cccc(F)c1	0.3
NC1(c2nc(Cn3nc(-c4ccc(Cl)cc4)n(C[C@H](O)C(F)(F)F)c3=O)nn2-c2ccccc2Cl)CC1 [Example 76, hydrochloride]	8.3
CC(N)c1nc(Cn2nc(-c3ccc(Cl)cc3)n(C[C@H](O)C(F)(F)F)c2=O)nn1-c1ccccc1Cl (single isomer, unassigned) [Example 62]	11.7
CN(C)C1(c2nc(Cn3nc(-c4ccc(Cl)cc4)n(C[C@H](O)C(F)(F)F)c3=O)nn2-c2ccccc2Cl)CC1	14.5
CNC(=O)OCc1nc(Cn2nc(-c3ccc(Cl)cc3)n(C[C@H](O)C(F)(F)F)c2=O)nn1-c1cccc(F)c1	1.5
CC(=O)NC(CO)c1nc(Cn2nc(-c3ccc(Cl)cc3)n(C[C@H](O)C(F)(F)F)c2=O)nn1-c1ncccc1OC(F)(F)F (mixture of isomers) [Example 120]	32.8
C[C@@H](OC(N)=O)c1nc(Cn2nc(-c3ccc(Cl)cc3)n(C[C@H](O)C(F)(F)F)c2=O)nn1-c1c(F)cccc1Cl	5.1
O=C1NC(c2nc(Cn3nc(-c4ccc(Cl)cc4)n(C[C@H](O)C(F)(F)F)c3=O)nn2-c2ncccc2Cl)CO1 (single isomer, unassigned) [Example 113]	23.1
O=C(NCC(F)(F)F)OCc1nc(Cn2nc(-c3ccc(Cl)cc3)n(C[C@H](O)C(F)(F)F)c2=O)nn1-c1cccc(F)c1	0.5
CC(=O)NC(CO)c1nc(Cn2nc(-c3ccc(Cl)cc3)n(C[C@H](O)C(F)(F)F)c2=O)nn1-c1ncccc1OC(F)(F)F (single isomer, unassigned) [Example 122]	44.1
